# assay method text: blockers of RIG-like receptor reporter activation – cell-based, Sendai virus stimulus, luciferase, 10K MLSCN set, TLR/RLR signaling modifier project, primary screen (AID 602276);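 further: firefly luciferase from ISG56 promoter only with Renilla not read in this screen; 0% = Sendai virus plus DMSO and 100% = medium plus DMSO without virus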
# measurement conditions: HEK293 RL24 IRF3 luciferase reporter, at 10 µM, hits give high values
Catalogue of inhibition values
Kindly provide the numeric value in % only, without the unit symbol.

C=C(C)CSc1nnc2[nH]c(=O)cc(N)n12; 15.7
COc1cccc(N2CCN(Cc3nc(N)nc(Nc4ccccc4OC)n3)CC2)c1; 19
O=C(COC(=O)c1cc(S(=O)(=O)N2CCOCC2)ccc1O)NCC1CCCO1 (centres undefined); 15.4

### Prompt Using the record for CCOC(=O)c1cccc(NC(=O)CSc2nnc(-c3ccoc3C)n2CCOC)c1 , report its inhibition.
### Response 18.8
